experiment: log P determination by HPLC on reversed-phase column (C 18), EEC Directive 79/831 Annex V.A8; format: physicochemical; details: HPLC on reversed-phase column (C 18)
endpointName: LogP

compound	endpointName	recordedNumber
COC(=O)C(c1ccccc1Cl)N(C(=O)c1c(C)nn(C)c1F)C1CC1 (stereo not drawn) [Compound 383]	LogP	2.57
Cc1nn(C)c(F)c1C(=O)N(Cc1ccc(C(F)(F)F)cc1)C1CC1 [Compound 237]	LogP	2.8
Cc1nc(C(F)F)c(C(=O)N(Cc2c(Cl)cc(Cl)cc2Cl)C2CC2)s1 [Compound 171]	LogP	4.1
Cn1cc(C(=O)N(Cc2c(Cl)cc(Cl)cc2Cl)C2CC2)c(I)n1 [Compound 258]	LogP	3.34
Cn1cc(C(=O)N(Cc2c(Cl)cc(Cl)cc2Cl)C2CC2)c(C(F)(F)F)n1 [Compound 256]	LogP	3.78
COc1nn(C)cc1C(=O)N(Cc1ccc(Cl)cc1Cl)C1CC1 [Compound 251]	LogP	2.81
CCC(c1ccc(Cl)cc1Cl)N(C(=O)c1c(C)nn(C)c1F)C1CC1 (stereo not drawn) [Compound 386]	LogP	3.53
CCOc1nn(C)cc1C(=O)N(Cc1c(Cl)cc(Cl)cc1Cl)C1CC1 [Compound 257]	LogP	3.35
CC(c1ccc(Cl)cc1Cl)N(C(=O)c1cn(C)nc1I)C1CC1 (stereo not drawn) [Compound 266]	LogP	3.22

---

Experiment: log P determination by HPLC on reversed-phase column (C 18), EEC Directive 79/831 Annex V.A8
Format: physicochemical
Conditions: HPLC, C 18, 40° C., 0.1% aqueous formic acid and acetonitrile gradient
Protocol: Temperature: 40° C.; Mobile phases: 0.1% aqueous formic acid and acetonitrile; linear gradient from 10% acetonitrile to 90% acetonitrile. Calibration was carried out using unbranched alkan-2-ones (comprising 3 to 16 carbon atoms) with known log P values (determination of the log P values by the retention times using linear interpolation between two successive alkanones).
endpointName: LogP

compound	LogP
Cc1cc(C(=O)N(Cc2ccc(C(F)(F)F)cc2)C2CC2)c(C(F)(F)F)o1 [Compound 16]	4.18
O=C(c1sccc1I)N(Cc1ccc(Cl)cc1Cl)C1CC1 [Compound 58]	4.48
Cn1cc(C(=O)N(Cc2ccc(Cl)cc2Cl)C2CC2)c(C(F)(F)F)c1 [Compound 98]	3.88
Cc1occc1C(=O)N(Cc1ccc(C(F)(F)F)cc1)C1CC1 [Compound 15]	3.43
Cc1occc1C(=O)N(Cc1c(Cl)cc(Cl)cc1Cl)C1CC1 [Compound 13]	4.09
Cc1cc(C(=O)N(Cc2c(Cl)cc(Cl)cc2Cl)C2CC2)c(C(F)(F)F)o1 [Compound 14]	4.91
Cn1cc(C(=O)N(Cc2ccc(C(F)(F)F)cc2)C2CC2)c(C(F)(F)F)c1 [Compound 100]	3.55

---

assay: log P determination by HPLC on reversed-phase column (C 18), EEC Directive 79/831 Annex V.A8; assay type: physicochemical; details: HPLC on reversed-phase column (C 18)
endpointName: LogP

compound	LogP
Cc1nc(C(F)F)c(C(=O)N(C2CC2)C(C)c2ccc(Cl)cc2Cl)s1 (centres unmarked)	3.9
Cc1nn(C)c(F)c1C(=O)N(Cc1cccc(Br)c1)C1CC1	2.66
CC(c1ccc(C(F)(F)F)cc1)N(C(=O)c1cn(C)nc1C(F)F)C1CC1 (centres unmarked)	3.27
CCOc1nn(C)cc1C(=O)N(Cc1ccc(Cl)cc1Cl)C1CC1	3.22
Cn1cc(C(=O)N(Cc2ccc(C(F)(F)F)cc2)C2CC2)c(C(F)(F)F)n1	3.29

meta.source: patent US8088927B2
